Taken from ChEMBL document CHEMBL5052852.

Catalogue of pIC50 readings, one per entry.
# PROCEDURE_DETAILS: Inhibition of recombinant rat/human ADAMTS12 hybrid using HiLyteFluor-488 DELSSMVLELRGLRT-K(QXL520)-E-NH2 as substrate incubated for 120 mins and measured by FRET assay
pIC50: −log10 of the molar value.
PROPERTY_MEASURED: pIC50

>>> observed_measurement("O=C1NC(=O)C(CNC(=O)c2cnn(-c3ccccc3)n2)(C2CCCOC2)N1 (stereo in doubt; form 2)")
5.19
>>> observed_measurement("O=C1NC(=O)C(CNC(=O)c2cnn(-c3ccc(F)cc3)n2)(c2ccccn2)N1 (stereo in doubt; form 2)")
4.30
>>> observed_measurement("O=C1NC(=O)[C@](CNC(=O)c2cnn(-c3cccc(F)c3)n2)(C2CC2)N1")
6.24
>>> observed_measurement("O=C1NC(=O)[C@](CNC(=O)c2cnn(-c3ccc(Cl)cc3F)n2)(C2CC2)N1")
6.00
>>> observed_measurement("COc1ccc(-n2ncc(C(=O)NC[C@@]3(C4CC4)NC(=O)NC3=O)n2)cc1")
5.22
>>> observed_measurement("O=C1NC(=O)C(CNC(=O)c2cnn(-c3ccc(F)cc3)n2)(C2CCC2)N1 (single isomer, unassigned)")
5.36
>>> observed_measurement("O=C1NC(=O)[C@](CNC(=O)c2cnc(-c3ccccc3)o2)(C2CC2)N1")
4.95
>>> observed_measurement("O=C1NC(=O)C(CNC(=O)c2cnn(-c3ccc(F)cc3)n2)(c2nccs2)N1 (stereo in doubt)")
5.85

====

# PROCEDURE_DETAILS: Inhibition of recombinant rat/human ADAMTS12 hybrid using HiLyteFluor-488 DELSSMVLELRGLRT-K(QXL520)-E-NH2 as substrate incubated for 120 mins and measured by FRET assay
pIC50: −log10 of the molar value.
Catalogue of pIC50 readings, one per entry.
PROPERTY_MEASURED: pIC50

>>> observed_measurement("O=C1NC(=O)C(CNC(=O)c2cnn(-c3ccccc3)n2)(C2CCC2)N1 (stereo in doubt)")
4.96
>>> observed_measurement("CC(C)C1(CNC(=O)c2cnn(-c3ccc(F)cc3)n2)NC(=O)NC1=O (racemic)")
4.80
>>> observed_measurement("O=C1NC(=O)[C@](CNC(=O)c2cnn(-c3ccccn3)n2)(C2CC2)N1")
5.12
>>> observed_measurement("CC(C)C1(CNC(=O)c2cnn(-c3cc(F)c(F)c(F)c3)n2)NC(=O)NC1=O (racemic)")
5.22
>>> observed_measurement("O=C1NC(=O)C(CNC(=O)c2cnn(-c3ccccc3)n2)(c2ccccn2)N1 (stereo in doubt)")
5.55

====

Catalogue of IC50 readings, one per entry.
# PROCEDURE_DETAILS: Inhibition of recombinant rat/human ADAMTS12 hybrid using HiLyteFluor-488 DELSSMVLELRGLRT-K(QXL520)-E-NH2 as substrate incubated for 120 mins and measured by FRET assay
PROPERTY_MEASURED: IC50

>>> observed_measurement("O=C1NC(=O)C(CNC(=O)c2cnn(-c3ccccc3)n2)(C2CCCOC2)N1 (racemic)")
"8.5 µM"
>>> observed_measurement("O=C1NC(=O)C(CNC(=O)c2cnn(-c3ccc(F)cc3)n2)(C2(Cl)CC2)N1 (racemic)")
"3.7 µM"
>>> observed_measurement("Cn1ccnc1C1(CNC(=O)c2cnn(-c3cc(F)c(F)c(F)c3)n2)NC(=O)NC1=O (racemic)")
"0.2 µM"
>>> observed_measurement("O=C1NC(=O)C(CNC(=O)c2cnn(-c3ccc(F)cc3)n2)(C2CCC2)N1 (racemic)")
"35 µM"

====

Catalogue of IC50 readings, one per entry.
# PROCEDURE_DETAILS: Inhibition of recombinant rat/human ADAMTS12 hybrid using HiLyteFluor-488 DELSSMVLELRGLRT-K(QXL520)-E-NH2 as substrate incubated for 120 mins and measured by FRET assay
PROPERTY_MEASURED: IC50 (µM)

>>> observed_measurement("O=C1NC(=O)[C@](CNC(=O)c2cnn(-c3ccc(F)cc3Cl)n2)(C2CC2)N1")
17
>>> observed_measurement("CCCCC1(CNC(=O)c2cnn(-c3ccc(F)cc3)n2)NC(=O)NC1=O (racemic)")
8.3
>>> observed_measurement("O=C1NC(=O)C(CNC(=O)c2cnn(-c3ccc(Cl)c(F)c3)n2)(C2CCC2)N1 (stereo not given)")
0.975
>>> observed_measurement("O=C1NC(=O)[C@](CNC(=O)c2cnn(-c3ccccc3F)n2)(C2CC2)N1")
7.6
>>> observed_measurement("Cc1scnc1C1(CNC(=O)c2cnn(-c3ccc(F)cc3)n2)NC(=O)NC1=O (racemic)")
0.68

====

# PROCEDURE_DETAILS: Inhibition of recombinant rat/human ADAMTS12 hybrid using HiLyteFluor-488 DELSSMVLELRGLRT-K(QXL520)-E-NH2 as substrate incubated for 120 mins and measured by FRET assay
PROPERTY_MEASURED: IC50

>>> observed_measurement("Cc1nc(C2(CNC(=O)c3cnn(-c4ccc(F)cc4)n3)NC(=O)NC2=O)c(C)s1 (racemic)")
"2.8 µM"
>>> observed_measurement("N#Cc1cccc(-n2ncc(C(=O)NC[C@@]3(C4CC4)NC(=O)NC3=O)n2)c1")
"0.6 µM"
>>> observed_measurement("O=C1NC(=O)C(CNC(=O)c2cnn(-c3cc(F)c(F)c(F)c3)n2)(C2CCC2)N1 (centres undefined)")
"3.1 µM"
>>> observed_measurement("O=C1NC(=O)[C@](CNC(=O)c2cnn(-c3nc4ccccc4s3)n2)(C2CC2)N1")
"11 µM"
>>> observed_measurement("O=C1NC(=O)C(CNC(=O)c2cnn(-c3ccc(F)cc3)n2)(C2(F)CC2)N1 (racemic)")
"7.9 µM"
>>> observed_measurement("O=C1NC(=O)C(CNC(=O)c2cnn(-c3ccc(F)cc3)n2)(c2ncsc2C2CC2)N1 (racemic)")
"0.46 µM"
>>> observed_measurement("CC(C)(C)C1(CNC(=O)c2cnn(-c3ccccc3)n2)NC(=O)NC1=O (racemic)")
"15 µM"
>>> observed_measurement("C[C@@H](NC(=O)c1cnn(-c2ccccc2)n1)C1(C2CC2)NC(=O)NC1=O (some centres undefined)")
"50 µM"
>>> observed_measurement("CCCC1(CNC(=O)c2cnn(-c3ccccc3)n2)NC(=O)NC1=O (racemic)")
"19 µM"

====

# PROCEDURE_DETAILS: Inhibition of recombinant rat/human ADAMTS12 hybrid using HiLyteFluor-488 DELSSMVLELRGLRT-K(QXL520)-E-NH2 as substrate incubated for 120 mins and measured by FRET assay
pIC50: −log10 of the molar value.
PROPERTY_MEASURED: pIC50

>>> observed_measurement("CC(C)(C)C1(CNC(=O)c2cnn(-c3ccc(C(F)(F)F)cc3)n2)NC(=O)NC1=O (racemic)")
4.30
>>> observed_measurement("O=C1NC(=O)C(CNC(=O)c2cnn(-c3ccc(F)cc3)n2)(c2ccncc2)N1 (racemic)")
5.54
>>> observed_measurement("N#Cc1cccc(-n2ncc(C(=O)NCC3(C4CCC4)NC(=O)NC3=O)n2)c1 (centres undefined)")
5.40
>>> observed_measurement("O=C1NC(=O)C(CNC(=O)c2cnn(-c3ccccc3)n2)(C2CCOC2)N1 (racemic)")
4.66
>>> observed_measurement("CC1(C)CC1C1(CNC(=O)c2cnn(-c3ccccc3)n2)NC(=O)NC1=O (stereo in doubt; form 2)")
5.70
>>> observed_measurement("O=C1NC(=O)[C@](CNC(=O)c2cnn(-c3cc(F)ccc3F)n2)(C2CC2)N1")
5.26
>>> observed_measurement("CCC(C)C1(CNC(=O)c2cnn(-c3ccc(F)cc3)n2)NC(=O)NC1=O (racemic)")
5.66
>>> observed_measurement("O=C1NC(=O)C(CNC(=O)c2cnn(-c3ccccc3)n2)(CC2CC2)N1 (racemic)")
4.60
>>> observed_measurement("CC(C)(C)C1(CNC(=O)c2cnn(-c3ccc(F)cc3)n2)NC(=O)NC1=O (stereo in doubt)")
5.66

====

# PROCEDURE_DETAILS: Inhibition of recombinant rat/human ADAMTS12 hybrid using HiLyteFluor-488 DELSSMVLELRGLRT-K(QXL520)-E-NH2 as substrate incubated for 120 mins and measured by FRET assay
pIC50: −log10 of the molar value.
Catalogue of pIC50 readings, one per entry.
PROPERTY_MEASURED: pIC50

>>> observed_measurement("O=C1NC(=O)C(CNC(=O)c2cnn(-c3ccc(F)c(F)c3)n2)(C2CCC2)N1 (stereo not drawn)")
6.05
>>> observed_measurement("O=C1NC(=O)C(CNC(=O)c2cnn(-c3ccc(F)c(F)c3)n2)(c2nccs2)N1 (stereo not drawn)")
6.51
>>> observed_measurement("O=C1NC(=O)C(CNC(=O)c2cnn(-c3ccc(F)cc3)n2)(c2ccnn2C(F)F)N1 (single isomer, unassigned; atropisomer)")
5.77
>>> observed_measurement("CCC(C)C1(CNC(=O)c2cnn(-c3ccc(F)cc3)n2)NC(=O)NC1=O (stereo in doubt; form 1)")
5.54
>>> observed_measurement("Cn1ccnc1C1(CNC(=O)c2cnn(-c3ccc(Cl)c(F)c3)n2)NC(=O)NC1=O (stereo not drawn)")
7.39
>>> observed_measurement("CCCCC1(CNC(=O)c2cnn(-c3ccc(F)cc3)n2)NC(=O)NC1=O (stereo in doubt)")
5.51
>>> observed_measurement("CC(C)C1(CNC(=O)c2cnn(-c3ccccc3)n2)NC(=O)NC1=O (racemic)")
4.84
>>> observed_measurement("O=C1NC(=O)[C@](CNC(=O)c2cnn(-c3ccc(Cl)cc3Cl)n2)(C2CC2)N1")
5.15
>>> observed_measurement("O=C1NC(=O)C(CNC(=O)c2cnn(-c3ccccc3)n2)(C2CCCOC2)N1 (stereo in doubt; form 1)")
5.40
>>> observed_measurement("Cc1scnc1C1(CNC(=O)c2cnn(-c3ccc(F)cc3)n2)NC(=O)NC1=O (stereo in doubt)")
6.70
>>> observed_measurement("O=C1NC(=O)C(CNC(=O)c2cnn(-c3ccccc3)n2)(C2CCCCC2)N1 (racemic)")
4.30
>>> observed_measurement("CC(C)(C)C1(CNC(=O)c2cnc(-c3ccccc3)o2)NC(=O)NC1=O (racemic)")
4.30
>>> observed_measurement("CC(C)(C)C1(CNC(=O)c2cnn(-c3cccc(F)c3)n2)NC(=O)NC1=O (racemic)")
5.18
>>> observed_measurement("O=C1NC(=O)C(CNC(=O)c2cnn(-c3ccccc3)n2)(C2CCCC2)N1 (racemic)")
4.30
>>> observed_measurement("O=C1NC(=O)C(CNC(=O)c2cnn(-c3ccc(Cl)cc3)n2)(C2CCC2)N1 (stereo not drawn)")
6.01
>>> observed_measurement("O=C1NC(=O)C(CNC(=O)c2cnn(-c3ccc(F)c(Cl)c3)n2)(C2CCC2)N1 (stereo not drawn)")
5.74
>>> observed_measurement("CCn1nccc1C1(CNC(=O)c2cnn(-c3ccc(F)cc3)n2)NC(=O)NC1=O (racemic)")
5.55
>>> observed_measurement("O=C1NC(=O)C(CNC(=O)c2cnn(-c3ccc(Cl)c(F)c3)n2)(c2nccs2)N1 (racemic)")
5.96
